Test system: MOLT-4
METHOD NOTES: Cytotoxic Activity against human tumor MOLT-4 cell line
Type: functional, cell-based
QUANTITY MEASURED: log10 IC50 (log10 of the value in µg/mL)
Plainly stated, the numbers are log10 of IC50 given in µg/mL.

Solved entries:
CHEM SMILES	log10 IC50
Cc1ccc(S(=O)(=O)N/C(=N\O)Nc2ccc(Cl)c(Cl)c2)cc1	0.85
O=S(=O)(N/C(=N\O)Nc1ccc(Cl)cc1)c1cc2ccccc2s1	1.76
O=S(=O)(N/C(=N\O)Nc1ccc(Cl)cc1)c1ccc(-c2cccs2)cn1	1.88
CCCCOc1ccc(S(=O)(=O)N/C(=N\O)Nc2ccc(Cl)cc2)cc1	1.26
O=S(=O)(N/C(=N\O)Nc1ccc(Cl)cc1)c1cccc2snnc12	1.52

Now examine the next entry.
The recorded log10 IC50 with MOLT-4 for N#Cc1c(Cl)cccc1Oc1ccc(S(=O)(=O)N/C(=N\O)Nc2ccc(Cl)cc2)cc1 was 1.98
